Assay: Total plasma clearance in Sprague-Dawley rat at 1 mg/kg, iv
Assay type: ADME, organism-based

molecule | unit | clearance
C=C(C)[C@@H]1CC[C@]2(NCCN3CCS(=O)(=O)CC3)CC[C@]3(C)[C@H](CC[C@@H]4[C@@]5(C)CC=C(c6ccc(C(=O)O)cc6)C(C)(C)[C@@H]5CC[C@]43C)[C@@H]12 [BMS-955176] | mL/min/kg | 2.2

----------
Experiment: Protein binding in rat serum at 53 nM after 1 hr by ultracentrifugation assay
Type: ADME, cell-free
Details: read-out: PB (converted)

compound_structure_string | fraction unbound at 1 h, 0.053 µM
C=C(C)[C@@H]1CC[C@]2(NCCN3CCS(=O)(=O)CC3)CC[C@]3(C)[C@H](CC[C@@H]4[C@@]5(C)CC=C(c6ccc(C(=O)O)cc6)C(C)(C)[C@@H]5CC[C@]43C)[C@@H]12 | 0.141

----------
Test: Tmax in beagle dog at 5 mg/kg, po administered via gavage as solution
Format: ADME, organism-based, Canis lupus familiaris
Settings: in vivo
readout_label: Tmax (h)

compound | value_reported
C=C(C)[C@@H]1CC[C@]2(NCCN3CCS(=O)(=O)CC3)CC[C@]3(C)[C@H](CC[C@@H]4[C@@]5(C)CC=C(c6ccc(C(=O)O)cc6)C(C)(C)[C@@H]5CC[C@]43C)[C@@H]12 [BMS-955176] | 12.7

----------
Experiment: Protein binding in cynomolgus monkey serum at 53 nM after 1 hr by ultracentrifugation assay
Assay type: ADME, cell-free, Macaca fascicularis
Conditions: read-out: PB (converted)

compound_structure_string | fraction unbound at 1 h, 0.053 µM
C=C(C)[C@@H]1CC[C@]2(NCCN3CCS(=O)(=O)CC3)CC[C@]3(C)[C@H](CC[C@@H]4[C@@]5(C)CC=C(c6ccc(C(=O)O)cc6)C(C)(C)[C@@H]5CC[C@]43C)[C@@H]12 | 0.216

----------
Assay: Cmax in Sprague-Dawley rat at 5 mg/kg, po treated with 10 mg/kg elacridar immediately after compound dosing
Format: ADME, organism-based
Parameters: dose 5 mg/kg, route oral
Details: in vivo, with elacridar 10 mg/kg

compound_structure_string | Cmax
C=C(C)[C@@H]1CC[C@]2(NCCN3CCS(=O)(=O)CC3)CC[C@]3(C)[C@H](CC[C@@H]4[C@@]5(C)CC=C(c6ccc(C(=O)O)cc6)C(C)(C)[C@@H]5CC[C@]43C)[C@@H]12 | 1800 nM

----------
Experiment: Tmax in Sprague-Dawley rat at 5 mg/kg, po
Assay type: ADME, organism-based
Conditions: in vivo

molecule | Tmax (h)
C=C(C)[C@@H]1CC[C@]2(NCCN3CCS(=O)(=O)CC3)CC[C@]3(C)[C@H](CC[C@@H]4[C@@]5(C)CC=C(c6ccc(C(=O)O)cc6)C(C)(C)[C@@H]5CC[C@]43C)[C@@H]12 [BMS-955176] | 6

----------
Test system: Human immunodeficiency virus 1
Test: microbe, parasite or virus in culture
Settings: Human immunodeficiency virus 1, MT2
Description: Antiviral activity against wild type HIV1 infected in human MT2 cells after 4 to 5 days by dual luciferase reporter gene assay
pEC50: −log10 of the molar value.
Each entry below carries its recorded pEC50.
readout_label: pEC50

molecule | target_or_system | value_reported
C=C(C)[C@@H]1CC[C@]2(NCCN3CCCCS3(=O)=O)CC[C@]3(C)[C@H](CC[C@@H]4[C@@]5(C)CC=C(c6ccc(C(=O)O)cc6)C(C)(C)[C@@H]5CC[C@]43C)[C@@H]12 | Human immunodeficiency virus 1 | 8.40
C=C(C)[C@@H]1CC[C@]2(NC(=O)CN3CCS(=O)(=O)CC3)CC[C@]3(C)[C@H](CC[C@@H]4[C@@]5(C)CC=C(c6ccc(C(=O)O)cc6)C(C)(C)[C@@H]5CC[C@]43C)[C@@H]12 | Human immunodeficiency virus 1 | 8.68
C=C(C)[C@@H]1CC[C@]2(NC(=O)OCCN3CCS(=O)(=O)CC3)CC[C@]3(C)[C@H](CC[C@@H]4[C@@]5(C)CC=C(c6ccc(C(=O)O)cc6)C(C)(C)[C@@H]5CC[C@]43C)[C@@H]12 | Human immunodeficiency virus 1 | 8.34
C=C(C)[C@@H]1CC[C@]2(NCCN3CCC(F)(F)CC3)CC[C@]3(C)[C@H](CC[C@@H]4[C@@]5(C)CC=C(c6ccc(C(=O)O)cc6)C(C)(C)[C@@H]5CC[C@]43C)[C@@H]12 | Human immunodeficiency virus 1 | 8.29
C=C(C)[C@@H]1CC[C@]2(NCCN3CCCS(=O)(=O)CC3)CC[C@]3(C)[C@H](CC[C@@H]4[C@@]5(C)CC=C(c6ccc(C(=O)O)cc6)C(C)(C)[C@@H]5CC[C@]43C)[C@@H]12 | Human immunodeficiency virus 1 | 8.44
C=C(C)[C@@H]1CC[C@]2(NCCN3CCC(S(C)(=O)=O)CC3)CC[C@]3(C)[C@H](CC[C@@H]4[C@@]5(C)CC=C(c6ccc(C(=O)O)cc6)C(C)(C)[C@@H]5CC[C@]43C)[C@@H]12 | Human immunodeficiency virus 1 | 8.74
C=C(C)[C@@H]1CC[C@]2(NCCN3CCN(S(C)(=O)=O)CC3)CC[C@]3(C)[C@H](CC[C@@H]4[C@@]5(C)CC=C(c6ccc(C(=O)O)cc6)C(C)(C)[C@@H]5CC[C@]43C)[C@@H]12 | Human immunodeficiency virus 1 | 8.48
C=C(C)[C@@H]1CC[C@]2(NC(=O)C(C)N3CCS(=O)(=O)CC3)CC[C@]3(C)[C@H](CC[C@@H]4[C@@]5(C)CC=C(c6ccc(C(=O)O)cc6)C(C)(C)[C@@H]5CC[C@]43C)[C@@H]12 (some centres undefined) | Human immunodeficiency virus 1 | 8.74
C=C(C)[C@@H]1CC[C@]2(NC(=O)NCCN3CCS(=O)(=O)CC3)CC[C@]3(C)[C@H](CC[C@@H]4[C@@]5(C)CC=C(c6ccc(C(=O)O)cc6)C(C)(C)[C@@H]5CC[C@]43C)[C@@H]12 | Human immunodeficiency virus 1 | 8.23
C=C(C)[C@@H]1CC[C@]2(NC(=O)CCN3CCS(=O)(=O)CC3)CC[C@]3(C)[C@H](CC[C@@H]4[C@@]5(C)CC=C(c6ccc(C(=O)O)cc6)C(C)(C)[C@@H]5CC[C@]43C)[C@@H]12 | Human immunodeficiency virus 1 | 8.17
C=C(C)[C@@H]1CC[C@]2(NCCNC3CCN(S(C)(=O)=O)C3)CC[C@]3(C)[C@H](CC[C@@H]4[C@@]5(C)CC=C(c6ccc(C(=O)O)cc6)C(C)(C)[C@@H]5CC[C@]43C)[C@@H]12 (some centres undefined) | Human immunodeficiency virus 1 | 8.72
C=C(C)[C@@H]1CC[C@]2(NCCN3CCC4(C3)CN(S(C)(=O)=O)C4)CC[C@]3(C)[C@H](CC[C@@H]4[C@@]5(C)CC=C(c6ccc(C(=O)O)cc6)C(C)(C)[C@@H]5CC[C@]43C)[C@@H]12 | Human immunodeficiency virus 1 | 8.77
C=C(C)[C@@H]1CC[C@]2(NC(=O)C(C(C)C)N3CCS(=O)(=O)CC3)CC[C@]3(C)[C@H](CC[C@@H]4[C@@]5(C)CC=C(c6ccc(C(=O)O)cc6)C(C)(C)[C@@H]5CC[C@]43C)[C@@H]12 (some centres undefined) | Human immunodeficiency virus 1 | 8.41
C=C(C)[C@@H]1CC[C@]2(NCCN3C[C@@H]4C[C@H]3CS4(=O)=O)CC[C@]3(C)[C@H](CC[C@@H]4[C@@]5(C)CC=C(c6ccc(C(=O)O)cc6)C(C)(C)[C@@H]5CC[C@]43C)[C@@H]12 | Human immunodeficiency virus 1 | 8.72

----------
Below, each of the compounds is paired with its reported AUC(0-t) at 24 h value.
Test: in vivo
Conditions: Sprague-Dawley, rat, po, 5 mg/kg
readout_label: AUC(0-t) at 24 h (µM·h)

compound_structure_string | readout_label | value_reported
C=C(C)[C@@H]1CC[C@]2(NCCN3CCN(S(C)(=O)=O)CC3)CC[C@]3(C)[C@H](CC[C@@H]4[C@@]5(C)CC=C(c6ccc(C(=O)O)cc6)C(C)(C)[C@@H]5CC[C@]43C)[C@@H]12 | AUC(0-t) at 24 h | 28.6
C=C(C)[C@@H]1CC[C@]2(NCCN3CCS(=O)(=O)CC3)CC[C@]3(C)[C@H](CC[C@@H]4[C@@]5(C)CC=C(c6ccc(C(=O)O)cc6)C(C)(C)[C@@H]5CC[C@]43C)[C@@H]12 | AUC(0-t) at 24 h | 14.2
C=C(C)[C@@H]1CC[C@]2(C(=O)NCCN3CCS(=O)(=O)CC3)CC[C@]3(C)[C@H](CC[C@@H]4[C@@]5(C)CC=C(c6ccc(C(=O)O)cc6)C(C)(C)[C@@H]5CC[C@]43C)[C@@H]12 | AUC(0-t) at 24 h | 2.47
C=C(C)[C@@H]1CC[C@]2(NCCN3C[C@@H]4C[C@H]3CS4(=O)=O)CC[C@]3(C)[C@H](CC[C@@H]4[C@@]5(C)CC=C(c6ccc(C(=O)O)cc6)C(C)(C)[C@@H]5CC[C@]43C)[C@@H]12 | AUC(0-t) at 24 h | 27
C=C(C)[C@@H]1CC[C@]2(C(=O)NCCC(=O)O)CC[C@]3(C)[C@H](CC[C@@H]4[C@@]5(C)CC=C(c6ccc(C(=O)O)cc6)C(C)(C)[C@@H]5CC[C@]43C)[C@@H]12 | AUC(0-t) at 24 h | 79.3
